Test system: C33A
protocol_text: Primary qHTS to identify gynecologic anti-cancer compounds using libraries of approved drugs and bioactive compounds (AID 1345084); also: nearly all actives have a fitted effect of over 55% in size
study_conditions: Gynecologic cancer cell panel viability, ATPlite luminescence, 48 h; series mostly up to 57.5 µM
Results filed as inconclusive are left out. Activity calls are given as the source filed them. Calls follow the shape of the dose curve; as a rule, active = well fitted cell-killing curve with a large enough effect; inconclusive = small, poorly fitted or top-dose-only effect, or effect the other way; inactive = flat fitted curve, though single readings scatter.
recorded_endpoint: outcome

INSERT INTO assay_data (compound, recorded_endpoint, reading) VALUES
  ('O=C(CCCN1CCC2(CC1)C(=O)NCN2c1ccccc1)c1ccc(F)cc1', 'outcome', 'inactive'),
  ('CCN(CCO)CCn1c(Cc2ccccc2)nc2c1c(=O)n(C)c(=O)n2C', 'outcome', 'inactive'),
  ('COC1CC(=C(c2cccs2)c2cccs2)C[N+](C)(C)C1 (centres undefined)', 'outcome', 'inactive'),
  ('C[N+]1(CCF)[C@@H]2CC[C@H]1CC(OC(=O)C(O)(c1ccccc1)c1ccccc1)C2 (some centres undefined)', 'outcome', 'inactive');

----------
protocol_text: Primary qHTS to identify inhibitors of SARS-CoV-2 cell entry (AID 1645846); also: nearly all actives have a fitted effect of over 45% in size
study_conditions: SARS-CoV-2 pseudovirus cell entry assay, luminescence; series mostly up to 57.1 µM
Results filed as inconclusive are left out. Active and inactive are the calls of the source. Calls come from the whole dose curve.
Outcomes: T = active, F = inactive

INSERT INTO assay_data (molecule, class_name) VALUES
  ('Nc1nc2ccc(OC(F)(F)F)cc2s1', 'F'),
  ('Nc1nc(-c2ccccc2)c(Br)c(=O)[nH]1', 'F'),
  ('COc1ccc(C(=O)c2ccccc2)c(O)c1', 'F'),
  ('C[C@@H](N)[C@@H](O)c1ccccc1', 'F'),
  ('CCCCCC[C@@H](CCC)C(=O)O', 'F'),
  ('CCc1cccc(CC)c1NC(=O)CN(CC(=O)O)CC(=O)O', 'F'),
  ('O=c1[nH]c(=O)n([C@H]2C[C@H](O)[C@@H](CO)O2)cc1I', 'T'),
  ('CO[C@@H]1[C@@H](OC(N)=O)[C@@H](O)[C@H](Oc2ccc3c(O)c(NC(=O)c4ccc(O)c(CC=C(C)C)c4)c(=O)oc3c2C)OC1(C)C', 'F'),
  ('CCn1cc(C(=O)O)c(=O)c2cc(F)c(N3CCNC(C)C3)c(F)c21 (centres undefined)', 'F'),
  ('COc1ccc2c(c1OC)C(=O)O[C@H]2[C@@H]1c2cc3c(cc2CCN1C)OCO3', 'F'),
  ('Cc1cc2cc3c(C)cc(=O)oc3c(C)c2o1', 'F'),
  ('CC(C)Cc1ccc(C(C)C(=O)O)cc1 (centres undefined)', 'F'),
  ('Cc1ccc(C(C)C)cc2c(C)ccc1-2', 'F'),
  ('CCCCOCCOC(=O)c1cccnc1', 'F'),
  ('CNC[C@H](O)c1cccc(O)c1', 'F'),
  ('CN[C@@H]1[C@@H](O)[C@@H](O[C@@H]2[C@H](O)[C@H](O[C@H]3OC(CN)=CC[C@H]3N)[C@@H](N)C[C@H]2N)OCC1(C)O (some centres undefined)', 'F'),
  ('CC(C)NC(C)C', 'F'),
  ('CCN1CCC[C@H]1CNC(=O)c1cc(S(N)(=O)=O)ccc1OC', 'F'),
  ('Nc1ccc(C(=O)Oc2ccccc2)c(O)c1', 'F'),
  ('COC(=O)c1cc(Cl)ccc1NS(=O)(=O)C(F)(F)F', 'F'),
  ('C[C@]12C=CC(=O)C=C1CC[C@@H]1[C@@H]2[C@@H](O)C[C@@]2(C)[C@H]1CC[C@]2(O)C(=O)CO', 'F'),
  ('O=C(CCBr)N1CCN(C(=O)CCBr)CC1', 'F'),
  ('C/C(=N\O)[C@@H](C)NCC(C)(C)CN[C@H](C)/C(C)=N/O', 'F'),
  ('COc1cc(/C=C/C(=O)O[C@H]2CC[C@]34C[C@]35CC[C@]3(C)[C@@H]([C@H](C)CCC=C(C)C)CC[C@@]3(C)[C@@H]5CC[C@H]4C2(C)C)ccc1O', 'F');

----------
Tested on: OV90
protocol_text: Primary qHTS to identify gynecologic anti-cancer compounds using libraries of approved drugs and bioactive compounds (AID 1345084); also: nearly all actives have a fitted effect of over 55% in size
study_conditions: Gynecologic cancer cell panel viability, ATPlite luminescence, 48 h; series mostly up to 57.5 µM
Records with an inconclusive call do not appear. The source made the active and inactive calls. Calls come from the whole dose curve; as a rule, active = well fitted cell-killing curve with a large enough effect; inconclusive = small, poorly fitted or top-dose-only effect, or effect the other way; inactive = flat fitted curve, though single readings scatter.
Possible outcomes: yes (active), no (inactive)

INSERT INTO results (compound, assayed_target, class_name) VALUES
  ('CCC1(CC)C(=O)C=CNC1=O', 'OV90', 'no'),
  ('CCOC(=O)CC(SP(=S)(OC)OC)C(=O)OCC (stereo unspecified)', 'OV90', 'no'),
  ('COP(=S)(OC)Oc1ccc(S(=O)(=O)N(C)C)cc1', 'OV90', 'no'),
  ('Clc1ccc(C(c2ccc(Cl)cc2)C(Cl)(Cl)Cl)cc1', 'OV90', 'no'),
  ('CN(C)CCc1c[nH]c2cccc(OP(=O)(O)O)c12', 'OV90', 'no'),
  ('CC(C)=CC1C(C(=O)OCN2C(=O)C3=C(CCCC3)C2=O)C1(C)C (stereo unspecified)', 'OV90', 'no'),
  ('COc1cccc2c1C(=O)c1c(O)c3c(c(O)c1C2=O)C[C@@](O)(C(=O)CO)CC3OC1CC(N2CCOC(OC)C2)C(O)C(C)O1 (stereo partly specified)', 'OV90', 'yes'),
  ('C=CCN1C[C@H](C)N([C@H](c2ccc(C(=O)N(CC)CC)cc2)c2cccc(OC)c2)C[C@H]1C', 'OV90', 'no'),
  ('COC1CC(=C(c2cccs2)c2cccs2)C[N+](C)(C)C1 (stereo unspecified)', 'OV90', 'no'),
  ('CCC1(c2ccccc2)C(=O)N(COC)C(=O)N(COC)C1=O', 'OV90', 'no'),
  ('CC(C(=O)c1ccccc1)N(C)C (stereo unspecified)', 'OV90', 'no');

----------
protocol_text: qHTS for Inhibitors of the Functional Ribonucleoprotein Complex (vRNP) of Lymphocytic Choriomeningitis Arenaviruses (LCMV): Viability assay - alamar blue signal for LCMV Primary Screen (AID 1347085); also: % is scaled to controls: 0 for no effect and ±100 for the full control effect; nearly all actives have a fitted effect of over 80% in size
study_conditions: alamar blue viability counter-screen, LCMV vRNP screen cells; series mostly up to 57.5 µM
Records with an inconclusive call do not appear. Active and inactive are the calls of the source. Calls follow the shape of the full dose curve; tested in HEK293 reporter line.
recorded_endpoint: activity change, negative = lower viability

INSERT INTO assay_data (smiles_representation, reading) VALUES
  ('CCCCCCCCCCOc1cc2c(=O)c(C(=O)OCC)c[nH]c2cc1OCC', '5.24% [at 5.82 µM] (inactive)'),
  ('N=C(N)N1CCc2ccccc2C1', '-9.02% [at 5.82 µM] (inactive)'),
  ('NCCNCCNCCNCCN', '2.19% [at 11.5 µM] (inactive)'),
  ('O=C(O)Cc1cccc(-c2cc(CCCCCCc3ccc(O[C@H]4O[C@H](CO)[C@@H](O)[C@H](O)[C@@H]4O)c(-c4cccc(CC(=O)O)c4)c3)ccc2O[C@H]2O[C@H](CO)[C@@H](O)[C@H](O)[C@@H]2O)c1', '2.8% [at 0.757 µM] (inactive)');

----------
Reported max response by item:
protocol_text: qHTS assay for small molecule agonists of the antioxidant response element (ARE) signaling pathway measured by Nrf2-dependant transcriptional activity - cell viability counter screen (AID 720653); also: % is scaled to controls: 0 for no effect and ±100 for the full control effect
study_conditions: ARE-bla HepG2 viability, CellTiter-Glo ATP luminescence, 16 h; hits give low values
Results filed as inconclusive are left out.
recorded_endpoint: max response (%)

INSERT INTO results (compound, recorded_endpoint, reading) VALUES
  ('O=C1c2ccccc2C(=O)c2ccccc21', 'max response', -5.47),
  ('Nc1ccc([As](=O)(O)O)cc1', 'max response', -9.13),
  ('CC(C)NC(C)C', 'max response', -19.4),
  ('COP(=S)(OC)SCN1C(=O)c2ccccc2C1=O', 'max response', 3.01),
  ('Nc1ccccc1C(=O)O', 'max response', 1.19),
  ('NCCc1ccc(O)cc1', 'max response', 13.6),
  ('CC1(C)C(C=C(Cl)Cl)C1C(=O)OC(C#N)c1cccc(Oc2ccccc2)c1 (stereo not drawn)', 'max response', -2.42),
  ('COP(=S)(OC)Oc1cc(Cl)c(Cl)cc1Cl', 'max response', -0.922);

----------
protocol_text: Drug repurposing screens with cells derived from glioblastoma tumor samples (AID 1345199); also: % is scaled to controls: 0 for no effect and ±100 for the full control effect; nearly all actives have a fitted effect of over 40% in size
study_conditions: GBM patient neurospheres viability, ATP luminescence, 48 h; at 108 µM (top of the series); tumour line B
Inconclusive results are not listed. Active and inactive are the calls of the source. Calls follow the shape of the dose curve; as a rule, active = well fitted inhibition curve with a large enough effect; inconclusive = small, poorly fitted or top-dose-only effect; inactive = flat fitted curve, though single readings scatter.
recorded_endpoint: activity, negative = cell killing

INSERT INTO results (smiles_representation, reading) VALUES
  ('CCN(CC)CCc1c[nH]c2ccccc12', '-10.6% (inactive)'),
  ('CCN[C@@H](C)Cc1ccccc1', '-6.22% (inactive)'),
  ('COc1cc(CCN)cc(OC)c1OC', '-15.3% (inactive)'),
  ('C[C@H](N)C(=O)c1ccccc1', '-16.2% (inactive)');
